Assay: In vitro binding affinity against Alpha-1A adrenergic receptor in isolated prostate tissue of dog
ASSAY METRIC: pKi
# pKi is unitless: minus log10 of the molar concentration; print number only

pKi for CCC1=C(C(N)=O)C(c2ccc(F)c(F)c2)N(C(=O)NCCCN2CCC(C(=O)OC)(c3ccccc3)CC2)C(=O)N1 (stereo unspecified) is 8.89
